# ASSAY_TEXT: Plasma, brain and liver levels of epothilone D after bolus IV in triple transgenic mice
# Assay type: in vivo, mouse
# TEST_CONTEXT: triple transgenic (Oddo et al. 2003), mouse, plasma, 5 mg/kg, bolus IV 5 mpk, 6 hr, read-out: Plasma conc

TEST_SMILES | concentration at 6 h [nM]
C/C1=C/C[C@@H](/C(C)=C/c2csc(C)n2)OC(=O)C[C@H](O)C(C)(C)C(=O)[C@H](C)[C@@H](O)[C@@H](C)CCC1 | 43

* * *

# ASSAY_TEXT: Plasma, brain and liver levels of epothilone D after bolus IV in triple transgenic mice
# Type: in vivo, mouse
# TEST_CONTEXT: triple transgenic (Oddo et al. 2003), mouse, plasma, 5 mg/kg, bolus IV 5 mpk, .33 hr, read-out: Plasma conc

COMPOUND | READOUT_UNIT | concentration at […]
C/C1=C/C[C@@H](/C(C)=C/c2csc(C)n2)OC(=O)C[C@H](O)C(C)(C)C(=O)[C@H](C)[C@@H](O)[C@@H](C)CCC1 [Epothilone D, epothilone D] | nM | 549

* * *

# ASSAY_TEXT: Brain half-life of epothilone D in mice
# Type: in vivo, mouse
# TEST_CONTEXT: mouse, brain, ip, 1 mg/kg, Mouse, IP, 1 mpk; read-out: Half life (brain) (converted)

TEST_SMILES | half-life / h
C/C1=C/C[C@@H](/C(C)=C/c2csc(C)n2)OC(=O)C[C@H](O)C(C)(C)C(=O)[C@H](C)[C@@H](O)[C@@H](C)CCC1 | 44

* * *

# ASSAY_TEXT: Plasma, brain and liver levels after bolus IV administration in nude mice
# TEST_CONTEXT: nude, mouse, in vivo, iv, 1 mg/kg, Brain conc, bolus IV 1 mpk, 24 hr

MOLECULE | concentration at 24 h (nM)
C/C(=C\c1csc(CN)n1)[C@@H]1C[C@@H]2O[C@]2(C)CCC[C@H](C)[C@H](O)[C@@H](C)C(=O)C(C)(C)[C@@H](O)CC(=O)O1 [Compound II] | 1.3

* * *

# ASSAY_TEXT: in vivo
# TEST_CONTEXT: nude, mouse, iv, 12 mg/kg
OUTCOME_MEASURE: Kp at 24 h

COMPOUND | OBSERVED
C/C(=C\c1csc(C)n1)[C@@H]1C[C@@H]2O[C@]2(C)CCC[C@H](C)[C@H](O)[C@@H](C)C(=O)C(C)(C)[C@@H](O)CC(=O)N1 [Ixabepilone] | 30

* * *

# ASSAY_TEXT: Plasma, brain and liver levels after oral gavage in C57BL/6 mice
# Assay type: in vivo, mouse
# TEST_CONTEXT: mouse, plasma, 10 mg/kg; C57BL/6 mice, oral gavage 10 mpk, 1 hr; read-out: Plasma conc
concentration at 1 h: recorded values

COMPOUND | concentration at 1 h
C/C1=C/C[C@@H](/C(C)=C/c2csc(C)n2)OC(=O)C[C@H](O)C(C)(C)C(=O)[C@H](C)[C@@H](O)[C@@H](C)CCC1 | 15.1 nM
CCC[C@H]1C(=O)C(C)(C)[C@@H](O)CC(=O)O[C@H](/C(C)=C/c2csc(C)n2)CC=C(C)CCC[C@H](C)[C@@H]1O (single isomer, unassigned) | 12.3 nM

* * *

# ASSAY_TEXT: Plasma, brain and liver levels of epothilone D after bolus IV in triple transgenic mice
# Format: in vivo, mouse
# TEST_CONTEXT: triple transgenic (Oddo et al. 2003), mouse, brain, 5 mg/kg, bolus IV 5 mpk, 168 hr, read-out: Brain conc

TEST_SMILES | concentration at 168 h, nM
C/C1=C/C[C@@H](/C(C)=C/c2csc(C)n2)OC(=O)C[C@H](O)C(C)(C)C(=O)[C@H](C)[C@@H](O)[C@@H](C)CCC1 | 16.3

* * *

# ASSAY_TEXT: Plasma, brain and liver levels of epothilone D after bolus IV in triple transgenic mice
# Assay type: in vivo, mouse
# TEST_CONTEXT: triple transgenic (Oddo et al. 2003), mouse, plasma, 5 mg/kg, bolus IV 5 mpk, 1 hr, read-out: Plasma conc
OUTCOME_MEASURE: concentration at 1 h

COMPOUND | OBSERVED
C/C1=C/C[C@@H](/C(C)=C/c2csc(C)n2)OC(=O)C[C@H](O)C(C)(C)C(=O)[C@H](C)[C@@H](O)[C@@H](C)CCC1 [Epothilone D, epothilone D] | 325 nM

* * *

# ASSAY_TEXT: Brain half-life of epothilone D in mice
# Type: in vivo, mouse
# TEST_CONTEXT: mouse, brain, ip, 10 mg/kg, Mouse, IP, 10 mpk; read-out: Half life (brain) (converted)
OUTCOME_MEASURE: half-life (h)

TEST_SMILES | OBSERVED
C/C1=C/C[C@@H](/C(C)=C/c2csc(C)n2)OC(=O)C[C@H](O)C(C)(C)C(=O)[C@H](C)[C@@H](O)[C@@H](C)CCC1 | 41

* * *

# ASSAY_TEXT: Plasma, brain and liver levels after oral gavage in C57BL/6 mice
# Assay type: in vivo, mouse
# TEST_CONTEXT: mouse, brain/plasma, 35 mg/kg; C57BL/6 mice, oral gavage 35 mpk, 5 hr; read-out: Brain/Plasma Ratio
# Excerpt: Below, we first report the experimental detail for preparation and isolation of Compound III, and then the biological, in vivo data is described.

COMPOUND | Kp at 5 h
CCC[C@H]1C(=O)C(C)(C)[C@@H](O)CC(=O)O[C@H](/C(C)=C/c2csc(C)n2)CC=C(C)CCC[C@H](C)[C@@H]1O (single isomer, unassigned) | 1.4

* * *

# ASSAY_TEXT: Plasma, brain and liver levels after oral gavage in C57BL/6 mice
# Format: in vivo, mouse
# TEST_CONTEXT: mouse, brain and plasma, 10 mg/kg; C57BL/6 mice, oral gavage 10 mpk, 1 hr; read-out: Brain/Plasma Ratio

MOLECULE | Kp at 1 h
CCC[C@H]1C(=O)C(C)(C)[C@@H](O)CC(=O)O[C@H](/C(C)=C/c2csc(C)n2)CC=C(C)CCC[C@H](C)[C@@H]1O (single isomer, unassigned) [Compound III] | 0.8

* * *

# ASSAY_TEXT: Plasma, brain and liver levels after bolus IV administration in nude mice
# TEST_CONTEXT: nude, mouse, in vivo, iv, 1 mg/kg, Brain-to-plasma Ratio, bolus IV 1 mpk, 24 hr

TEST_SMILES | Kp at 24 h
C/C(=C\c1csc(CN)n1)[C@@H]1C[C@@H]2O[C@]2(C)CCC[C@H](C)[C@H](O)[C@@H](C)C(=O)C(C)(C)[C@@H](O)CC(=O)O1 | 1.2

* * *

# ASSAY_TEXT: Plasma, brain and liver levels of epothilone D after bolus IV in triple transgenic mice
# Type: in vivo, mouse
# TEST_CONTEXT: triple transgenic (Oddo et al. 2003), mouse, brain, 5 mg/kg, bolus IV 5 mpk, 1 hr, read-out: Brain conc

COMPOUND | concentration at 1 h (nM)
C/C1=C/C[C@@H](/C(C)=C/c2csc(C)n2)OC(=O)C[C@H](O)C(C)(C)C(=O)[C@H](C)[C@@H](O)[C@@H](C)CCC1 [Epothilone D, epothilone D] | 422

* * *

# ASSAY_TEXT: Brain half-life of epothilone D in mice
# Type: in vivo, mouse
# TEST_CONTEXT: mouse, brain, po, 10 mg/kg, Mouse, Oral, 10 mpk; read-out: Half life (brain) (converted)
OUTCOME_MEASURE: half-life (h)

TEST_SMILES | OBSERVED
C/C1=C/C[C@@H](/C(C)=C/c2csc(C)n2)OC(=O)C[C@H](O)C(C)(C)C(=O)[C@H](C)[C@@H](O)[C@@H](C)CCC1 | 46

* * *

# ASSAY_TEXT: in vivo
# TEST_CONTEXT: nude, mouse, iv, 4 mg/kg, Plasma conc
OUTCOME_MEASURE: concentration at 6 h (nM)

COMPOUND | READOUT_UNIT | OBSERVED
CC(=O)O[C@H]1C(=O)[C@@]2(C)[C@H]([C@H](OC(=O)c3ccccc3)[C@]3(O)C[C@H](OC(=O)[C@H](O)[C@@H](NC(=O)c4ccccc4)c4ccccc4)C(C)=C1C3(C)C)[C@]1(OC(C)=O)CO[C@@H]1C[C@@H]2O [Paclitaxel, paclitaxel] | nM | 43

* * *

# ASSAY_TEXT: in vivo
# TEST_CONTEXT: nude, mouse, iv, 4 mg/kg, Brain conc
OUTCOME_MEASURE: concentration at 1 h (nM)

COMPOUND | READOUT_UNIT | OBSERVED
CC(=O)O[C@H]1C(=O)[C@@]2(C)[C@H]([C@H](OC(=O)c3ccccc3)[C@]3(O)C[C@H](OC(=O)[C@H](O)[C@@H](NC(=O)c4ccccc4)c4ccccc4)C(C)=C1C3(C)C)[C@]1(OC(C)=O)CO[C@@H]1C[C@@H]2O [Paclitaxel, paclitaxel] | nM | 47
